# experimental-system: HER2 (Homo sapiens)
# Construct: purchased Carna Biosciences, Inc; host or cells: insect cell expression system
# assay-comment: Enzyme inhibitory activity on HER2 (time resolution fluorescence, biotinylated poly-Glu-Tyr substrate)
# Type: biochemical
# measurement-context: enzyme reaction at room temperature for 60 minutes
# maps each entry to its IC50
I only need the number, in nM, no unit after it.

Sure, the documented IC50 for "CC#C/C(=N\OC[C@H]1CN(C)CCN1)c1ccc2ncnc(Nc3ccc(OCc4ccccn4)c(Cl)c3)c2c1" is 26

----------
# maps each entry to its IC50
# experimental-system: HER2 (Homo sapiens, UniProt P04626)
# Construct: purchased Carna Biosciences, Inc; host or cells: insect cell expression system
# Sequence (P04626 23-1255): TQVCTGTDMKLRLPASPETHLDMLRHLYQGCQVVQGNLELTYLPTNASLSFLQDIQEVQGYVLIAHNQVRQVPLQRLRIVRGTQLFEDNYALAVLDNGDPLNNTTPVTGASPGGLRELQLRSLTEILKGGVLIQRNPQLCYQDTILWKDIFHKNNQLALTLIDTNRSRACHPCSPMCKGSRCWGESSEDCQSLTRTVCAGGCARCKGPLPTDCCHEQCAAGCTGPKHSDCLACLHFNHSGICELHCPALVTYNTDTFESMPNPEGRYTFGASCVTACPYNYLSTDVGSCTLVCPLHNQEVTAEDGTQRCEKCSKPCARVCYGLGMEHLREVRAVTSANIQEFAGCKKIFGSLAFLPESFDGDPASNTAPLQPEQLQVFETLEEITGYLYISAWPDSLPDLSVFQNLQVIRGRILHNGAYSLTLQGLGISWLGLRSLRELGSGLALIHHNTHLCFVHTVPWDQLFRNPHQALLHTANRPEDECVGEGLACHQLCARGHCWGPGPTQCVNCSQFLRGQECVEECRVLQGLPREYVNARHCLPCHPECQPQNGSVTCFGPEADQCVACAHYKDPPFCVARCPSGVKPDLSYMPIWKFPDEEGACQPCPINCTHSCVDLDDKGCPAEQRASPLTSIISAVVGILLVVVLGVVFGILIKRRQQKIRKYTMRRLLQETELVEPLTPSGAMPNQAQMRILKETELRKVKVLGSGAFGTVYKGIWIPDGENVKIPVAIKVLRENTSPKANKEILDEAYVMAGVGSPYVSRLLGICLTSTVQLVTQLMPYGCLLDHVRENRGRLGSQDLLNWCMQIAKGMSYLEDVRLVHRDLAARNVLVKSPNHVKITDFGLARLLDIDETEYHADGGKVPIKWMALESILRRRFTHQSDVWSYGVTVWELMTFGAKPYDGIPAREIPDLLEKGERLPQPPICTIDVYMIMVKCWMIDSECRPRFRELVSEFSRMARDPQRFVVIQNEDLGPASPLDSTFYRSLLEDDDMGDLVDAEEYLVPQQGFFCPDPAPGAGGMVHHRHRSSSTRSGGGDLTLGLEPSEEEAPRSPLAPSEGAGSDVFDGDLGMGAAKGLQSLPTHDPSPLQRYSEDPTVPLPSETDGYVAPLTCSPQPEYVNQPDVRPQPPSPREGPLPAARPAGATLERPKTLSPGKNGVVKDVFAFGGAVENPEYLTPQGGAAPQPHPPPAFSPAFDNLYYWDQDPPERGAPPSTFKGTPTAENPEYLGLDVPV
# assay-comment: Enzyme inhibitory activity on HER2 (time resolution fluorescence, biotinylated poly-Glu-Tyr substrate)
# Type: biochemical
# measurement-context: HER2 purified from insect cell expression system; ATP solution 290 μM; room temperature, 60 minutes
# Experimental: Enzyme Inhibitory Activity of Test Compound on EGFR and HER2 EGFR and HER2 purified from an insect cell expression system, and a biotinylated substrate (synthetic peptide of glutamic acid:tyrosine=4:1) were added to a 384-well plate with ATP added thereto, and an enzyme reaction was performed at room temperature. […]
I only need the number, in nM, no unit after it.

Observe how each entry below is paired with its result.
CC#CC(=NOCC1CNCCN1)c1ccc2ncnc(Nc3ccc(OCc4cccc(F)c4)c(Cl)c3)c2c1 (stereo not shown) = 5.6
CC#C/C(=N\OC[C@@H]1CCCN1C)c1ccc2ncnc(Nc3ccc(OCc4cccc(F)c4)c(Cl)c3)c2c1 = 34
CC#C/C(=N\OC1CNC1)c1ccc2ncnc(Nc3ccc(OCc4cccc(F)c4)c(Cl)c3)c2c1 = 25

Alright, here's another compound for you.
Noted IC50 for "CC#C/C(=N\OCCNC1CCN(S(C)(=O)=O)CC1)c1ccc2ncnc(Nc3ccc(OCc4cccc(F)c4)c(Cl)c3)c2c1" , tested on HER2 (Homo sapiens, UniProt P04626): 30

----------
# maps each entry to its IC50
# experimental-system: HER2 (Homo sapiens)
# Construct: purchased Carna Biosciences, Inc; host or cells: insect cell expression system
# assay-comment: Enzyme inhibitory activity on HER2 (time resolution fluorescence, biotinylated poly-Glu-Tyr substrate)
# Format: biochemical
# measurement-context: HER2 purified from insect cell expression system; ATP solution 290 μM; room temperature, 60 minutes
Counter-ions that a name gives are not always drawn.
Remember to quote the unit after the number.

Observe how each entry below is paired with its result.
CC#C/C(=N\OCCN(C)CCO)c1ccc2ncnc(Nc3ccc(OCc4cccc(F)c4)c(Cl)c3)c2c1.Cl.Cl = 43 nM
CC#CC(=NOC[C@@H]1CNCCO1)c1ccc2ncnc(Nc3ccc(OCc4cccc(F)c4)c(Cl)c3)c2c1 [VIII-32, dihydrochloride] = 46 nM
CC#C/C(=N\OC[C@H]1CCCN1CC(=O)O)c1ccc2ncnc(Nc3ccc(OCc4cccc(F)c4)c(Cl)c3)c2c1 = 56 nM

Sure, the documented IC50 for CC#CC(=NOC1CNC(CO)C1)c1ccc2ncnc(Nc3ccc(OCc4cccc(F)c4)c(Cl)c3)c2c1 (stereo not shown) is 29 nM

----------
# experimental-system: EGFR (Homo sapiens, UniProt P00533)
# Construct: purchased Carna Biosciences, Inc; host or cells: insect cell expression system
# Sequence (P00533 25-1210): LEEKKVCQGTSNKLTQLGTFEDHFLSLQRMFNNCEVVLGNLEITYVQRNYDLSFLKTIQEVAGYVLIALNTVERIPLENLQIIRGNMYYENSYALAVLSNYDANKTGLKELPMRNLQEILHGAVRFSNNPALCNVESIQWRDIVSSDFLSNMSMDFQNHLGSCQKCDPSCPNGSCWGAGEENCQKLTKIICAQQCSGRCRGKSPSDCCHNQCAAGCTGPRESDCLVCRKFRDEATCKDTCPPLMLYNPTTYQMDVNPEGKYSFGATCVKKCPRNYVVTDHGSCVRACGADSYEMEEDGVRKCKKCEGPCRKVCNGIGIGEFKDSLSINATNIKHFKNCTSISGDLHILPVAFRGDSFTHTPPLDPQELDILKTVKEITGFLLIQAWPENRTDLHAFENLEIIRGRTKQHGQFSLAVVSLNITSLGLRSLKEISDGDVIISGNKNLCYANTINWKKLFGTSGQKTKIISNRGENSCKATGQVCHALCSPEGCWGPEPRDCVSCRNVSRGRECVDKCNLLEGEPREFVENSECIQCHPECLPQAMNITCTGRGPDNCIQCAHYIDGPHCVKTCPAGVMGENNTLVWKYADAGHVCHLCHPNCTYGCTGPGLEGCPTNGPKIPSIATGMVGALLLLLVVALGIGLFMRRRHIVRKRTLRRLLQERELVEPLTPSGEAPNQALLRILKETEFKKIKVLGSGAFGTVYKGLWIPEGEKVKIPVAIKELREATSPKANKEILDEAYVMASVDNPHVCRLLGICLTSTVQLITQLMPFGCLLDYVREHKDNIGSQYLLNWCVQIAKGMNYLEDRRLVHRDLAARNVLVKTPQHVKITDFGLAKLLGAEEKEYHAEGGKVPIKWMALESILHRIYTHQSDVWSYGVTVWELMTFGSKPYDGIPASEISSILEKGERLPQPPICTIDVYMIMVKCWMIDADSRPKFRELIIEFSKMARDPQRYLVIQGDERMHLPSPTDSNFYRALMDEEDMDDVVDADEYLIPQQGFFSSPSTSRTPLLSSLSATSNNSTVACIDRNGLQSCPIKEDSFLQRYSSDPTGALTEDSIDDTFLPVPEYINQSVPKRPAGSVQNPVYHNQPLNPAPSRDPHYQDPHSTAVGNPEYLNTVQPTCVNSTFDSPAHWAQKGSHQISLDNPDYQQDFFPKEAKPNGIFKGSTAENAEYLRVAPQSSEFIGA
# assay-comment: Enzyme inhibitory activity on EGFR (time resolution fluorescence, biotinylated poly-Glu-Tyr substrate)
# Type: biochemical
# measurement-context: EGFR purified from insect cell expression system; ATP solution 125 μM; room temperature, 60 minutes
experimental-endpoint: IC50
Remember to quote the unit after the number.

Observe how each entry below is paired with its result.
CC#C/C(=N\OCCN1CCC(N)CC1)c1ccc2ncnc(Nc3ccc(OCc4cccc(F)c4)c(Cl)c3)c2c1 [VIII-98] = 21 nM
CC#CC(=NOCC1NC(=O)OC1C)c1ccc2ncnc(Nc3ccc(OCc4cccc(F)c4)c(Cl)c3)c2c1 (stereo not drawn) [VIII-77] = 217 nM
CC#C/C(=N\OC[C@@H](N)CO)c1ccc2ncnc(Nc3ccc(OCc4cccc(F)c4)c(Cl)c3)c2c1 [VIII-41] = 12 nM
CC#C/C(=N\OCCNC[C@H]1CCCO1)c1ccc2ncnc(Nc3ccc(OCc4cccc(F)c4)c(Cl)c3)c2c1 [VIII-48] = 44 nM
CC/C(=N\OCCNC)c1ccc2ncnc(Nc3ccc(OCc4cccc(F)c4)c(Cl)c3)c2c1 [VIII-20] = 29 nM

Sure, the documented IC50 for CC#C/C(=N\OCCNC1CC1)c1ccc2ncnc(Nc3ccc(OCc4cccc(F)c4)c(Cl)c3)c2c1 [VIII-46] is 82 nM

Sure, the documented IC50 for CC#C/C(=N\OC[C@H]1CS(=O)(=O)CCN1)c1ccc2ncnc(Nc3ccc(OCc4cccc(F)c4)c(Cl)c3)c2c1 [VIII-118] is 197 nM

Sure, the documented IC50 for CC#C/C(=N\OCCN1CCNC(=O)C1)c1ccc2ncnc(Nc3ccc(OCc4cccc(F)c4)c(Cl)c3)c2c1 [VIII-94] is 213 nM

Sure, the documented IC50 for CC#C/C(=N\OC[C@H]1CN(C)CCN1)c1ccc2ncnc(Nc3ccc(OCc4cccc(F)c4)c(Cl)c3)c2c1 [VIII-113] is 9.7 nM

Sure, the documented IC50 for CC#CC(=NOCC1CCC(=O)N1)c1ccc2ncnc(Nc3ccc(OCc4cccc(F)c4)c(Cl)c3)c2c1 (stereo not drawn) [VIII-78] is 111 nM

Sure, the documented IC50 for CC#C/C(=N\OC[C@H]1CCCN1CC#N)c1ccc2ncnc(Nc3ccc(OCc4cccc(F)c4)c(Cl)c3)c2c1 [VIII-86] is 244 nM

Sure, the documented IC50 for CC#C/C(=N\OCCN1CCC(O)CC1)c1ccc2ncnc(Nc3ccc(OCc4cccc(F)c4)c(Cl)c3)c2c1 [VIII-97] is 19 nM

Sure, the documented IC50 for CC#C/C(=N\OC[C@H]1NC(=O)O[C@@H]1C)c1ccc2ncnc(Nc3ccc(OCc4cccc(F)c4)c(Cl)c3)c2c1 [VIII-76] is 162 nM

Sure, the documented IC50 for CC#C/C(=N\OCCN1CC[C@@H](OC(N)=O)C1)c1ccc2ncnc(Nc3ccc(OCc4cccc(F)c4)c(Cl)c3)c2c1 [VIII-71] is 130 nM

Sure, the documented IC50 for CC#C/C(=N\OCCN(CC)CCOC)c1ccc2ncnc(Nc3ccc(OCc4cccc(F)c4)c(Cl)c3)c2c1 [VIII-65] is 97 nM

----------
# experimental-system: EGFR (Homo sapiens)
# Construct: purchased Carna Biosciences, Inc; host or cells: insect cell expression system
# assay-comment: Enzyme inhibitory activity on EGFR (time resolution fluorescence, biotinylated poly-Glu-Tyr substrate)
# Type: biochemical
# measurement-context: EGFR purified from insect cell expression system; ATP solution 125 μM; room temperature, 60 minutes
# maps each entry to its IC50
I only need the number, in nM, no unit after it.

Observe how each entry below is paired with its result.
CNCCO/N=C(\C#CCO)c1ccc2ncnc(Nc3ccc(OCc4cccc(F)c4)c(Cl)c3)c2c1 = 17
CC#C/C(=N\OC[C@H]1CCCN1CC(=O)O)c1ccc2ncnc(Nc3ccc(OCc4cccc(F)c4)c(Cl)c3)c2c1 = 47
CC#C/C(=N\OCCNC(C)COC)c1ccc2ncnc(Nc3ccc(OCc4cccc(F)c4)c(Cl)c3)c2c1 (stereo not shown) = 26
CC#C/C(=N\OCCNC[C@@H]1COC(=O)N1)c1ccc2ncnc(Nc3ccc(OCc4cccc(F)c4)c(Cl)c3)c2c1 = 115
C=CC(=O)N1CCN(CCON=Cc2ccc3ncnc(Nc4ccc(OCc5cccc(F)c5)c(Cl)c4)c3c2)CC1 = 186
CC#C/C(=N\OCCN(C)CCO)c1ccc2ncnc(Nc3ccc(OCc4cccc(F)c4)c(Cl)c3)c2c1.Cl.Cl = 27

Sure, the documented IC50 for "CC#C/C(=N\OCCNC[C@@H]1CCCO1)c1ccc2ncnc(Nc3ccc(OCc4cccc(F)c4)c(Cl)c3)c2c1" is 28

----------
# Tested on: BT-474
# assay-comment: In vitro cell proliferation inhibition, WST assay
# Type: cell-based, human
# measurement-context: Homo sapiens, BT-474, 72 h, BT-474 cells, cultured for 3 days, read-out: BT-474 (nM) proliferation inhibitory activity (IC50 value)
Assign labels as follows, please: Satisfied for IC50 below 20 nM; Not satisfied for IC50 equal to or exceeding 20 nM.

CC#C/C(=N\OCCNC)c1ccc2ncnc(Nc3ccc(Oc4ccc(C)nc4)c(C)c3)c2c1 = Not satisfied

IC50 under 20 nM? Item: "CC#C/C(=N\OC[C@H]1NC(=O)O[C@@H]1C)c1ccc2ncnc(Nc3ccc(OCc4cccc(F)c4)c(Cl)c3)c2c1"
Satisfied

IC50 under 20 nM? Item: "CC#C/C(=N\OC[C@H]1CNCC(=O)N1)c1ccc2ncnc(Nc3ccc(OCc4ccccn4)c(Cl)c3)c2c1"
Not satisfied

IC50 under 20 nM? Item: "COCC#C/C(=N\OCCN1CCCC1)c1ccc2ncnc(Nc3ccc(OCc4cccc(F)c4)c(Cl)c3)c2c1"
Satisfied

IC50 under 20 nM? Item: CC#C/C(=N\OCC1COCCN1)c1ccc2ncnc(Nc3ccc(S(=O)(=O)c4ccccc4)cc3)c2c1 (centres unmarked)
Not satisfied

IC50 under 20 nM? Item: "CC#C/C(=N\OCCN1CCOCC1)c1ccc2ncnc(Nc3ccc(OCc4ccccn4)c(Cl)c3)c2c1"
Not satisfied

IC50 under 20 nM? Item: "CC#C/C(=N\OCCNC)c1ccc2ncnc(Nc3ccc(OCc4cccnc4)c(Cl)c3)c2c1"
Not satisfied

IC50 under 20 nM? Item: "CC#C/C(=N\OC[C@@H]1C[C@@H](O)CN1)c1ccc2ncnc(Nc3ccc(OCc4cccc(F)c4)c(Cl)c3)c2c1"
Satisfied

IC50 under 20 nM? Item: "CC#C/C(=N\OC[C@@H](C)N)c1ccc2ncnc(Nc3ccc(OCc4ccccn4)c(Cl)c3)c2c1"
Satisfied

IC50 under 20 nM? Item: "CC#C/C(=N\OC[C@@H]1CNCCO1)c1ccc2ncnc(Nc3ccc(OCc4ccccn4)c(Cl)c3)c2c1"
Not satisfied

IC50 under 20 nM? Item: CC#C/C(=N\OCC1COCCN1)c1ccc2ncnc(Nc3ccc(Oc4ccc(C)nc4)c(C)c3)c2c1 (centres unmarked)
Not satisfied

IC50 under 20 nM? Item: "CC#C/C(=N\OCCCNC)c1ccc2ncnc(Nc3ccc(OCc4ccccn4)c(Cl)c3)c2c1"
Not satisfied

IC50 under 20 nM? Item: "CC#C/C(=N\OC[C@@H]1NCCO[C@H]1C)c1ccc2ncnc(Nc3ccc(OCc4cccc(F)c4)c(Cl)c3)c2c1"
Satisfied

IC50 under 20 nM? Item: "CC#C/C(=N\OCCN1CCC(O)CC1)c1ccc2ncnc(Nc3ccc(OCc4ccccn4)c(Cl)c3)c2c1"
Not satisfied

IC50 under 20 nM? Item: "CNCCO/N=C(\C#CCOC)c1ccc2ncnc(Nc3ccc4c(cnn4Cc4cccc(F)c4)c3)c2c1"
Not satisfied

IC50 under 20 nM? Item: CC#CC(=NOCC1CNCCN1)c1ccc2ncnc(Nc3ccc(OCc4ccccn4)c(Cl)c3)c2c1 (centres unmarked)
Satisfied

IC50 under 20 nM? Item: "CC#C/C(=N\OCCNCCNS(C)(=O)=O)c1ccc2ncnc(Nc3ccc(OCc4cccc(F)c4)c(Cl)c3)c2c1"
Satisfied

IC50 under 20 nM? Item: "CC#C/C(=N\OC[C@@H]1COCCN1)c1ccc2ncnc(Nc3ccc(S(=O)(=O)c4ccccc4)cc3)c2c1"
Not satisfied

IC50 under 20 nM? Item: "CC#C/C(=N\OCCNC)c1ccc2ncnc(Nc3ccc(S(=O)(=O)c4ccccc4)cc3)c2c1"
Not satisfied

IC50 under 20 nM? Item: "CC#C/C(=N\OCCNC[C@H]1CCC(=O)N1)c1ccc2ncnc(Nc3ccc4c(cnn4Cc4cccc(F)c4)c3)c2c1"
Satisfied

IC50 under 20 nM? Item: "CC/C(=N\OCCN1CCOCC1)c1ccc2ncnc(Nc3ccc(OCc4cccc(F)c4)c(Cl)c3)c2c1"
Not satisfied

IC50 under 20 nM? Item: "CC#C/C(=N\OCC(N)=O)c1ccc2ncnc(Nc3ccc(OCc4cccc(F)c4)c(Cl)c3)c2c1"
Satisfied

IC50 under 20 nM? Item: "Fc1cccc(COc2ccc(Nc3ncnc4ccc(/C=N/OCCN5CCCC5)cc34)cc2Cl)c1"
Not satisfied
